Provide the recorded Retention_time for the entries that follow.
# assay name: Retention time of the compound by HPLC
# Format: physicochemical
Response body: numeric value in min, unit text excluded.

# input Suppose we examine the compound `O=C(O)CC[C@H](NC(=O)N[C@@H](CCCCNC(=O)[C@H](Cc1ccc2ccccc2c1)NC(=O)CN1CCN(CC(=O)O)CCN(CC(=O)O)CCN(CC(=O)O)CC1)C(=O)O)C(=O)O` ; what Retention_time value has been reported?
# output 2.71

# input Suppose we examine the compound `O=C(O)CC[C@H](NC(=O)N[C@@H](CCCCNC(=O)[C@@H](Cc1ccc2ccccc2c1)NC(=O)[C@H]1CC[C@H](CNC(=O)CN2CCN(CC(=O)O)CCN(CC(=O)O)CCN(CC(=O)O)CC2)CC1)C(=O)O)C(=O)O` ; what Retention_time value has been reported?
# output 2.56

# input Suppose we examine the compound `O=C(O)CC[C@H](NC(=O)N[C@@H](CCCCNC(=O)[C@H](Cc1ccc2ccccc2c1)NC(=O)CCCCCNC(=O)CN1CCN(CC(=O)O)CCN(CC(=O)O)CCN(CC(=O)O)CC1)C(=O)O)C(=O)O` ; what Retention_time value has been reported?
# output 2.58

----------
# assay name: Drug uptake in iv dosed BALB/c athymic nude mouse muscle xenografted with human LNCaP cells treated with 68Ga-labeled compound measured after 1 hr by microPET imaging analysis
# Assay type: ADME, organism-based
# details: in vivo
metric name: SUV
Just the number, please, no unit attached.

# input Suppose we examine the molecule O=C(O)CC[C@H](NC(=O)N[C@@H](CCCCNC(=O)[C@H](Cc1ccc2ccccc2c1)NC(=O)[C@H]1CC[C@H](CNC(=O)CN2CCN(CC(=O)O)CCN(CC(=O)O)CCN(CC(=O)O)CC2)CC1)C(=O)O)C(=O)O [VIPIVOTIDE TETRAXETAN] ; what SUV value has been reported?
# output 0.07

# input Suppose we examine the molecule `O=C(O)CC[C@H](NC(=O)N[C@@H](CCCCNC(=O)[C@H]1CC[C@H](CNC(=O)CN2CCN(CC(=O)O)CCN(CC(=O)O)CCN(CC(=O)O)CC2)CC1)C(=O)O)C(=O)O` ; what SUV value has been reported?
# output 0.15

# input Suppose we examine the molecule `O=C(O)CC[C@H](NC(=O)N[C@@H](CCCCNC(=O)[C@H](Cc1ccc2ccccc2c1)NC(=O)CCCCCNC(=O)CN1CCN(CC(=O)O)CCN(CC(=O)O)CCN(CC(=O)O)CC1)C(=O)O)C(=O)O` ; what SUV value has been reported?
# output 0.07

# input Suppose we examine the molecule `O=C(O)CC[C@H](NC(=O)N[C@@H](CCCCNC(=O)[C@H](Cc1ccc(-c2ccccc2)cc1)NC(=O)CN1CCN(CC(=O)O)CCN(CC(=O)O)CCN(CC(=O)O)CC1)C(=O)O)C(=O)O` ; what SUV value has been reported?
# output 0.23

# input Suppose we examine the molecule `O=C(O)CC[C@H](NC(=O)N[C@@H](CCCCNC(=O)[C@H](Cc1cccc2ccccc12)NC(=O)[C@H]1CC[C@H](CNC(=O)CN2CCN(CC(=O)O)CCN(CC(=O)O)CCN(CC(=O)O)CC2)CC1)C(=O)O)C(=O)O` ; what SUV value has been reported?
# output 0.08

# input Suppose we examine the molecule `O=C(O)CC[C@H](NC(=O)N[C@@H](CCCCNC(=O)[C@@H](Cc1ccc2ccccc2c1)NC(=O)[C@H]1CC[C@H](CNC(=O)CN2CCN(CC(=O)O)CCN(CC(=O)O)CCN(CC(=O)O)CC2)CC1)C(=O)O)C(=O)O` ; what SUV value has been reported?
# output 0.27

# input Suppose we examine the molecule `O=C(O)CC[C@H](NC(=O)N[C@@H](CCCCNC(=O)[C@H]1CC[C@H](CNC(=O)[C@H]2CC[C@H](CNC(=O)CN3CCN(CC(=O)O)CCN(CC(=O)O)CCN(CC(=O)O)CC3)CC2)CC1)C(=O)O)C(=O)O` ; what SUV value has been reported?
# output 0.13

# input Suppose we examine the molecule `O=C(O)CC[C@H](NC(=O)N[C@@H](CCCCNC(=O)CCCCCNC(=O)c1ccc(CNC(=O)CN2CCN(CC(=O)O)CCN(CC(=O)O)CCN(CC(=O)O)CC2)cc1)C(=O)O)C(=O)O` ; what SUV value has been reported?
# output 0.08

# input Suppose we examine the molecule `O=C(O)CC[C@H](NC(=O)N[C@@H](CCCCNC(=O)c1ccc(CNC(=O)c2ccc(CNC(=O)c3ccc(CNC(=O)CN4CCN(CC(=O)O)CCN(CC(=O)O)CCN(CC(=O)O)CC4)cc3)cc2)cc1)C(=O)O)C(=O)O` ; what SUV value has been reported?
# output 0.11

----------
# assay name: Drug uptake in iv dosed BALB/c athymic nude mouse tumor xenografted with human LNCaP cells treated with 68Ga-labeled compound measured after 1 hr by microPET imaging analysis
# Format: ADME, organism-based
# details: in vivo
Classification field: y = SUV at or over 0.3; n = SUV under 0.3.

# input Check if SUV >= 0.3 (inclusive). Item: `O=C(O)CC[C@H](NC(=O)N[C@@H](CCCCNC(=O)[C@H](Cc1cccc2ccccc12)NC(=O)[C@H]1CC[C@H](CNC(=O)CN2CCN(CC(=O)O)CCN(CC(=O)O)CCN(CC(=O)O)CC2)CC1)C(=O)O)C(=O)O`
# output n

# input Check if SUV >= 0.3 (inclusive). Item: `O=C(O)CC[C@H](NC(=O)N[C@@H](CCCCNC(=O)c1ccc(CNC(=O)CN2CCN(CC(=O)O)CCN(CC(=O)O)CCN(CC(=O)O)CC2)cc1)C(=O)O)C(=O)O`
# output n

# input Check if SUV >= 0.3 (inclusive). Item: `O=C(O)CC[C@H](NC(=O)N[C@@H](CCCCNC(=O)[C@H](Cc1ccc2ccccc2c1)NC(=O)c1ccc(CNC(=O)CN2CCN(CC(=O)O)CCN(CC(=O)O)CCN(CC(=O)O)CC2)cc1)C(=O)O)C(=O)O`
# output y

# input Check if SUV >= 0.3 (inclusive). Item: `O=C(O)CC[C@H](NC(=O)N[C@@H](CCCCNC(=O)[C@H]1CC[C@H](CNC(=O)c2ccc(CNC(=O)CN3CCN(CC(=O)O)CCN(CC(=O)O)CCN(CC(=O)O)CC3)cc2)CC1)C(=O)O)C(=O)O`
# output y

# input Check if SUV >= 0.3 (inclusive). Item: `O=C(O)CC[C@H](NC(=O)N[C@@H](CCCCNC(=O)[C@H](Cc1ccc2ccccc2c1)NC(=O)CCCCCNC(=O)CN1CCN(CC(=O)O)CCN(CC(=O)O)CCN(CC(=O)O)CC1)C(=O)O)C(=O)O`
# output n

# input Check if SUV >= 0.3 (inclusive). Item: `O=C(O)CC[C@H](NC(=O)N[C@@H](CCCCNC(=O)[C@H](Cc1ccc2ccccc2c1)NC(=O)CN1CCN(CC(=O)O)CCN(CC(=O)O)CCN(CC(=O)O)CC1)C(=O)O)C(=O)O`
# output y

# input Check if SUV >= 0.3 (inclusive). Item: O=C(O)CC[C@H](NC(=O)N[C@@H](CCCCNC(=O)[C@H](Cc1ccc2ccccc2c1)NC(=O)[C@H]1CC[C@H](CNC(=O)CN2CCN(CC(=O)O)CCN(CC(=O)O)CCN(CC(=O)O)CC2)CC1)C(=O)O)C(=O)O [VIPIVOTIDE TETRAXETAN]
# output y

# input Check if SUV >= 0.3 (inclusive). Item: `O=C(O)CC[C@H](NC(=O)N[C@@H](CCCCNC(=O)c1ccc(CNC(=O)c2ccc(CNC(=O)c3ccc(CNC(=O)CN4CCN(CC(=O)O)CCN(CC(=O)O)CCN(CC(=O)O)CC4)cc3)cc2)cc1)C(=O)O)C(=O)O`
# output y

# input Check if SUV >= 0.3 (inclusive). Item: `O=C(O)CC[C@H](NC(=O)N[C@@H](CCCCNC(=O)c1ccc(CNC(=O)c2ccc(CNC(=O)CN3CCN(CC(=O)O)CCN(CC(=O)O)CCN(CC(=O)O)CC3)cc2)cc1)C(=O)O)C(=O)O`
# output y

# input Check if SUV >= 0.3 (inclusive). Item: `O=C(O)CC[C@H](NC(=O)N[C@@H](CCCCNC(=O)[C@H](Cc1ccc(-c2ccccc2)cc1)NC(=O)CN1CCN(CC(=O)O)CCN(CC(=O)O)CCN(CC(=O)O)CC1)C(=O)O)C(=O)O`
# output y

# input Check if SUV >= 0.3 (inclusive). Item: `O=C(O)CC[C@H](NC(=O)N[C@@H](CCCCNC(=O)[C@@H](Cc1ccc2ccccc2c1)NC(=O)[C@H]1CC[C@H](CNC(=O)CN2CCN(CC(=O)O)CCN(CC(=O)O)CCN(CC(=O)O)CC2)CC1)C(=O)O)C(=O)O`
# output y

# input Check if SUV >= 0.3 (inclusive). Item: `O=C(O)CC[C@H](NC(=O)N[C@@H](CCCCNC(=O)[C@H]1CC[C@H](CNC(=O)[C@H]2CC[C@H](CNC(=O)[C@H]3CC[C@H](CNC(=O)CN4CCN(CC(=O)O)CCN(CC(=O)O)CCN(CC(=O)O)CC4)CC3)CC2)CC1)C(=O)O)C(=O)O`
# output n

# input Check if SUV >= 0.3 (inclusive). Item: `O=C(O)CC[C@H](NC(=O)N[C@@H](CCCCNC(=O)[C@H]1CC[C@H](CNC(=O)[C@H](Cc2ccc3ccccc3c2)NC(=O)CN2CCN(CC(=O)O)CCN(CC(=O)O)CCN(CC(=O)O)CC2)CC1)C(=O)O)C(=O)O`
# output y

# input Check if SUV >= 0.3 (inclusive). Item: `O=C(O)CC[C@H](NC(=O)N[C@@H](CCCCNC(=O)c1ccc(CNC(=O)c2ccc(CNC(=O)c3ccc(CNC(=O)c4ccc(CNC(=O)CN5CCN(CC(=O)O)CCN(CC(=O)O)CCN(CC(=O)O)CC5)cc4)cc3)cc2)cc1)C(=O)O)C(=O)O`
# output y

# input Check if SUV >= 0.3 (inclusive). Item: `O=C(O)CC[C@H](NC(=O)N[C@@H](CCCCNC(=O)[C@H]1CC[C@H](CNC(=O)CN2CCN(CC(=O)O)CCN(CC(=O)O)CCN(CC(=O)O)CC2)CC1)C(=O)O)C(=O)O`
# output n
